Tested on: MS2 coat protein
procedure_details: apparent KD of MS2 coat protein; designed switch direction (-1 OFF switch, 1 ON switch): 1; higher = weaker reporter binding
experimental_setup: input ligand: microRNA oligo, concentration not stated
# cutoff 40 nM applies to apparent KD of MS2 coat protein; >= gives Fulfilled, < gives Not fulfilled

{"ordered_residues": "UGGUACAUGGGAGGAUAUCAUGUAGACACAUGAGGAUCACCCAUGUCGAUGGAGACAUCGGAGAUUGAGAAGGCCCAUGUACCU [JL SSNG1 3.55] (Eterna round: R96, puzzle: Same State NG 2)", "assay_system": "MS2 coat protein", "label": "Fulfilled"}
{"ordered_residues": "GAGUGGUGGAGAGGAUAUGCAUUGUUAUUCACUGUAGAAGGUUCUAACAUGAGGAUCACCCAUGUAGGACUAUUCCUGUGUUUU [Parity 58 - Jieux - Same State NG 1] (Eterna round: R96, puzzle: Same State NG 1)", "assay_system": "MS2 coat protein", "label": "Not fulfilled"}
{"ordered_residues": "ACUAGAUCGAAAGAUCUAGAAAACGAGUAACAUGAGGAUCACCCAUGUUCAUGUUGCUCGUCUUAAGCCGAAAGGCG [JL ALT 15] (Eterna round: R96, puzzle: Sensor for hsa-mir-208a)", "assay_system": "MS2 coat protein", "label": "Not fulfilled"}
{"ordered_residues": "GUUACAUGAGGAUCACCCAUGUAUGUGUGGGAGUAAGUGUCUUAGGAUAUCUAUGAUUUAAUUUCAGAGAAGGAAGAUUGUUGU [JMF's solution 88] (Eterna round: R96, puzzle: Same State NG 3)", "assay_system": "MS2 coat protein", "label": "Fulfilled"}
{"ordered_residues": "GUGGAGAAUUAAGGAUAUCGAGUCAAGAUGUUAAACAUGAGGAUCACCCAUGUGGGUUGCGGUAUCGAGAAGGUAAUUUACGGG [salish99_SSNG2_r04_505] (Eterna round: R96, puzzle: Same State NG 2)", "assay_system": "MS2 coat protein", "label": "Not fulfilled"}
{"ordered_residues": "UAGGAUCAACGAGGAUAUAAUAGGUUCUAUUCGUGAUAUUGCGUACAUGAGGAUCACCCAUGUUAUUAGAAGGCGUAUGGGUUU [JR_SSNG2_Sub085] (Eterna round: R96, puzzle: Same State NG 2)", "assay_system": "MS2 coat protein", "label": "Fulfilled"}
{"ordered_residues": "CCGGCAAGUAUAGGAUAUCCCGCAACAGAAACGGGAGAAGGGUGCCAAACAUGAGGAUCACCCAUGUACACCGGAAAUAAAUAA [Lazaorra] (Eterna round: R96, puzzle: Same State NG 1)", "assay_system": "MS2 coat protein", "label": "Fulfilled"}
{"ordered_residues": "CCAGCUACUCACAUGAGGAUCACCCAUGUCUAGGAUAUAGUAGAGGAUAUUGGCGGAUGGAAGACCGAGAAGGCUACCUCCUGA [Eternabot solution 49] (Eterna round: R96, puzzle: Same State NG 3)", "assay_system": "MS2 coat protein", "label": "Not fulfilled"}
{"ordered_residues": "UGUUGUAUUACAGGAUAUCUAGUAUUUGUAUUUAGAGAAGGGUAUUCACAUGAGGAUCACCCAUGUAUAUACGAGGAAGUUGUG [JMF's solution 42] (Eterna round: R96, puzzle: Same State NG 1)", "assay_system": "MS2 coat protein", "label": "Not fulfilled"}
